experiment: HILIC, Waters ACQUITY UPLC BEH Amide, 100 × 2.1 mm, 1.7 µm; A: water + 0.125% formic acid + 10 mM ammonium formate; B: 5% water + 95% acetonitrile + 0.125% formic acid + 10 mM ammonium formate; gradient (min/%B) 0/100 2/100 7.7/70 9.5/40 10.25/30 12.75/100 17/100; settings: stereoisomer not certain
Recorded Metric: LC retention time (min)

CC(OC1C(N)C(O)OC(CO)C1O)C(=O)O (stereo not drawn)    8.28
CN1C(=O)CN=C(c2ccccc2)c2cc(Cl)ccc21    1.1
OCC1OC(n2cnc3c(NC4CCCC4O)ncnc32)C(O)C1O (stereo not drawn) [N-2-Hydroxycyclopentyladenosine]    3.48
O=C1CC(c2ccc(O)cc2)Oc2cc(O)ccc21 (stereo not drawn)    1.3
O=C1CCCC(=O)C1    1.47

A = NC(Cc1ccc(O)c(O)c1)C(=O)O (stereo not drawn) [3,4-Dihydroxyphenylalanine]
B = CCOC(=O)C(C)Oc1ccc(Oc2nc3ccc(Cl)cc3o2)cc1 (stereo not drawn)
C = CC(C)(C)NC(=O)C1CN(Cc2cccnc2)CCN1CC(O)CC(Cc1ccccc1)C(=O)NC1c2ccccc2CC1O (stereo not drawn)
D = COc1c(N2CC3CCCNC3C2)c(F)cc2c(=O)c(C(=O)O)cn(C3CC3)c12 (stereo not drawn)
Prompt line: Ascending by LC retention time, please. # answer = labels listed in requested order
Response line: B, C, D, A
